- target or system: human CB2 receptors (Homo sapiens, UniProt P34972)
- Construct: expressed in transfected cells; host or cells: HEK293
- Sequence (P34972 whole entry): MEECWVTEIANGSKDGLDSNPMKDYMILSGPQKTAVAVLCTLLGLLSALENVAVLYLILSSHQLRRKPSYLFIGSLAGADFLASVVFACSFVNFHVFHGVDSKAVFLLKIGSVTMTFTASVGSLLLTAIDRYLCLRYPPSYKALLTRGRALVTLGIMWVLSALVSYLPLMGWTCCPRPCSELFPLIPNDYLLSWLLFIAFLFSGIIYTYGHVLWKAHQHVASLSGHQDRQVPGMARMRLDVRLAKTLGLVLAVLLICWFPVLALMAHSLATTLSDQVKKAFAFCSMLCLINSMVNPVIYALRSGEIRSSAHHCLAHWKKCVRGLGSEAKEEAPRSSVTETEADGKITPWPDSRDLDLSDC
- assay explanation: human CB2 radioligand binding assay ([3H]CP-55,940 competition)
- experimental parameters: HEK293 membranes, 0.5 nM [3H]CP-55,940; read-out: human CB2 (Ki)
readout kind: Ki

CCCCc1cn(C(C)(C)C)s/c1=N\C(=O)[C@]1(C)CC[C@H](NC(=O)N2CC(O)C2)C1(C)C
190 nM

Lookup: Returns the measured Ki for the input molecule. Input: "CC(C)Cc1cn(C(C)(C)C)s/c1=N\C(=O)c1cc(C(F)(F)F)ccc1OCc1ccccn1"
Found: 470 nM

Lookup: Returns the measured Ki for the input molecule. Input: "CCCCc1cn(C(C)(C)C)s/c1=N\C(=O)[C@@H]1CC[C@](C)(NC(N)=O)C1(C)C"
Found: 150 nM

Lookup: Returns the measured Ki for the input molecule. Input: "COc1ccc(Cl)cc1C(=O)/N=c1\sn(C(C)(C)C)cc1COC[C@H]1CCCO1"
Found: 190 nM

Lookup: Returns the measured Ki for the input molecule. Input: "COC(=O)CCCc1cn(C(C)(C)C)s/c1=N\C(=O)c1cc(Cl)ccc1OC"
Found: 120 nM

Lookup: Returns the measured Ki for the input molecule. Input: "CCCCc1cn(C(C)(C)C)s/c1=N\C(=O)[C@]1(C)CC[C@H](C(=O)NCCCO)C1(C)C"
Found: 140 nM

Lookup: Returns the measured Ki for the input molecule. Input: "CCCCc1cn(C(C)(C)C)s/c1=N\S(=O)(=O)c1ccccc1"
Found: 170 nM

Lookup: Returns the measured Ki for the input molecule. Input: "CCCCc1cn(C(C)(C)C)s/c1=N\C(=O)[C@@]1(C)CC[C@@H](C(=O)NCCC)C1(C)C"
Found: 204 nM
